Numbers sourced from patent US12213969B2.

Biological target: Full length human recombinant HDAC6 protein (Homo sapiens)
Sequence (Q9UBN7 whole entry): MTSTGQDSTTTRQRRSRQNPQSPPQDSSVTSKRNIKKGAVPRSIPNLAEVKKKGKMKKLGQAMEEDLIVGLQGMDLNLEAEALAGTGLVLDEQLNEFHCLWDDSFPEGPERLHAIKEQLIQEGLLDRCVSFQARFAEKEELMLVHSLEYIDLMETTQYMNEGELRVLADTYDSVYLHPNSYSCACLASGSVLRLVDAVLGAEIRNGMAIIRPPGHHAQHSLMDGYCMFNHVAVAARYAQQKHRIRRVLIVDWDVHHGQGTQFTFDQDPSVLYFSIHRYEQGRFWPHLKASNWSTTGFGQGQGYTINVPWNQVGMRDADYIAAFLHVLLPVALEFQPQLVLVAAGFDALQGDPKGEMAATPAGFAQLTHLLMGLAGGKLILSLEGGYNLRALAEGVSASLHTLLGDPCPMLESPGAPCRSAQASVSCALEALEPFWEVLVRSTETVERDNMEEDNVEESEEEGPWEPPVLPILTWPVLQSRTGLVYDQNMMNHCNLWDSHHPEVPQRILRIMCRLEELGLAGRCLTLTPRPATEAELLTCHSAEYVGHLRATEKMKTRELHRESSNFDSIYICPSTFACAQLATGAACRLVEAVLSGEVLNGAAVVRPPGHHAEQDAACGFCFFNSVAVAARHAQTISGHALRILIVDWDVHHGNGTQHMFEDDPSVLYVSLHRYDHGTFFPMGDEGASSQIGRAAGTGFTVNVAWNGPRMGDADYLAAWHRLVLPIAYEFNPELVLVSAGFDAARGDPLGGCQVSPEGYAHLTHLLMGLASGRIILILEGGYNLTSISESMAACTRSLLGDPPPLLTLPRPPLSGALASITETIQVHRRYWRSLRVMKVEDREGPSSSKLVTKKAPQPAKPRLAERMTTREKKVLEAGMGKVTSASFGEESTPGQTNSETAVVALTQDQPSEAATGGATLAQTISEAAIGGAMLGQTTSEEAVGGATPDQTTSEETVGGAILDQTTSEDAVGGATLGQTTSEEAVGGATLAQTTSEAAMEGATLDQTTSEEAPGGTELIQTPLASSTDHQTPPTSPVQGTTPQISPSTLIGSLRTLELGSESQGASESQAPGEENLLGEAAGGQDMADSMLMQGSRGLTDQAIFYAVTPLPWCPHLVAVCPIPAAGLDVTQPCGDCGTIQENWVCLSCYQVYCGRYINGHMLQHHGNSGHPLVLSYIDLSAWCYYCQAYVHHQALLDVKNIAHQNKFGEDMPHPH
Assay: In vitro histone deacetylase assay: enzymatic HDAC6 electrophoretic mobility shift assay
Settings: peptide substrate RHKK(Ac)-NH2 2 μM, enzyme 1 nM, 25° C., 12 concentrations; read-out: HDAC6 activity range (IC50)
pIC50: −log10 of the molar value.
property: pIC50

# molecule, pIC50
rows = [
    ("CN1CCC[C@]2(Cc3ccc(C(=O)NO)cc3C2)C1=O [Compound I-32]", "7.30 to 8.00"),
    ("CN1CCC[C@@]2(Cc3ccc(C(=O)NO)cc3C2)C1=O [Compound I-33]", "7.30 to 8.00"),
    ("Cc1ccccc1CN1CC[C@]2(Cc3ccc(C(=O)NO)cc3C2)C1=O [Compound I-9]", "7.30 to 8.00"),
    ("O=C(NO)c1ccc2c(c1)C[C@]1(CCN(c3ccncc3)C1=O)C2 [Compound I-22]", "7.30 to 8.00"),
    ("CCN1CC[C@]2(Cc3ccc(C(=O)NO)cc3C2)C1=O [Compound I-5]", "7.30 to 8.00"),
    ("O=C(NO)c1ccc2c(c1)C[C@]1(CCCN(c3ccccc3)C1=O)C2 [Compound I-37]", "7.30 to 8.00"),
    ("O=C(NO)c1ccc2c(c1)C[C@]1(CCN(C(=O)c3ccccc3)C1)C2 [Compound I-31]", "≥ 8.00"),
    ("CC(C)CN1CC[C@@]2(Cc3ccc(C(=O)NO)cc3C2)C1=O [Compound I-8]", "7.30 to 8.00"),
]

Quick one: pIC50 of O=C(NO)c1ccc2c(c1)C[C@@]1(CCCN(c3ccccc3)C1=O)C2 [Compound I-36] ?
≥ 8.00

What value of pIC50 has been recorded for this entry: CN1CC[C@]2(Cc3ccc(C(=O)NO)cc3C2)C1=O [Compound I-1]
7.30 to 8.00

Quick one: pIC50 of CC(C)N1CC[C@]2(Cc3ccc(C(=O)NO)cc3C2)C1=O [Compound I-3] ?
7.30 to 8.00

Query: pIC50; subject: O=C(NO)c1ccc2c(c1)C[C@]1(CCN(c3ccccc3)C1=O)C2 [Compound I-14]
7.30 to 8.00

Which pIC50 is listed for CN1CC[C@@]2(Cc3ccc(C(=O)NO)cc3C2)C1 [Compound I-25] ?
< 7.30

Quick one: pIC50 for O=C(NO)c1ccc2c(c1)C[C@@]1(CCN(Cc3cccnc3)C1=O)C2 [Compound I-23] ?
7.30 to 8.00
